B1: Twister Ribozyme (parent)
chain: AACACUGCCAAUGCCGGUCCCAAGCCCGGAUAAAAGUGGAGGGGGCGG

- Variants of: B1
- experiment: self-cleavage, relative activity (ratio to wild type); higher = more cleavage; co-transcriptional
quantity-name: self-cleavage
Response field accepts a number only; no unit should be typed.

# query: self-cleavage of entry C3A C15U
0.108

Bench note: what self-cleavage did A35U G42C show?
0.539

For the variant G16C A35U , what self-cleavage is on record?
0.577

Quick check: self-cleavage of C21G C25A ?
0.0791

Requested field: self-cleavage. Item: C21G G44U
0.102

Recorded self-cleavage for C8G G45C , please?
0.118

Any idea what its self-cleavage is? The variant is C5A C14A
0.593

Quick one: self-cleavage for A1U G28C ?
0.0644

Recorded self-cleavage for A11C A34U , please?
0.785

Query: self-cleavage; subject: A35C G44U
0.976

Which self-cleavage is listed for A11U A30C ?
0.862

Any idea what its self-cleavage is? The variant is C27A A35C
0.58

What does the data say about its self-cleavage? Entry: A40G G45C
0.148

Dear colleague, I am looking for the recorded self-cleavage of the following variant: A23C C46G
0.155

Could you share which self-cleavage value was measured for C27A G44U ?
0.41

Any idea what self-cleavage was measured for C14A G24A ?
0.18

Consider the variant shown here: A11U G39C What is its recorded self-cleavage?
0.149

What value of self-cleavage has been reported for the following variant? U37C G42A
0.105

# input variant: U12C C21A ; wanted: its self-cleavage
0.124

Reported self-cleavage, variant A35G U37A : ____
0.574

Which self-cleavage is listed for G43C G48A ?
0.198

// query self-cleavage value for entry G13A A23C
0.093

// self-cleavage lookup, key: G17A U37A
0.207

Any idea what its self-cleavage is? The variant is G17U G41C
0.0885

Requested field: self-cleavage. Item: G13C G47U
0.145

Requested field: self-cleavage. Item: C19A G41U
0.109

Query: self-cleavage; subject: U31C G44A
1.1

Record request: self-cleavage value, item G39C G48A
0.138

Query (variant): U18A C27A ; field requested: self-cleavage
0.114

Please give the measured self-cleavage for this variant: C3G G38C
0.449

Reported self-cleavage for A23U G38A : what is it?
0.342

I have this variant here, C9U C14U , and I need its recorded self-cleavage.
0.596

What does the data say about its self-cleavage? Entry: A2G U31A
0.328

Look at this variant and give its reported self-cleavage. U6A G47A
0.862

What value of measured self-cleavage is listed for C19U A40G ?
0.108

Looking for the measured self-cleavage of G7U G48C , can you help?
0.123

Need self-cleavage, item A22G G39U
0.109

Would you kindly share the measured self-cleavage for C9U G17C ?
0.0426

Which measured self-cleavage value corresponds to A11U G36C ?
0.573

Consider the variant shown here: U37C C46A What is its recorded self-cleavage?
0.71

Request the reported self-cleavage associated with C9U G13A
1.03

Query (variant): U6C U31G ; field requested: self-cleavage
0.422

# self-cleavage lookup, item A4G G43U
0.233

Param item = C27U G28C ; retrieve measured self-cleavage.
0.568

What measured self-cleavage goes with A30G A34C ?
0.497

I would be grateful if you could share the reported self-cleavage for A10U A33U .
1.07

Param item = G24C A35U ; retrieve measured self-cleavage.
0.0871

Using the record for G28U G36C , report its self-cleavage.
0.232

Please look up its self-cleavage: U6A G39U
0.125

Form field: reported self-cleavage of C15A G28C
0.757

Which measured self-cleavage value corresponds to U6A C14U ?
0.795

Param item = U6C A23C ; retrieve measured self-cleavage.
0.0308

Form field: reported self-cleavage of A4U G48A
0.191

Suppose we examine the variant G43U G45C ; what self-cleavage value has been reported?
0.271

I'd like to know its self-cleavage. The variant in question is G39A G43C
0.134

Could you share which self-cleavage value was measured for `A40G` ?
0.153

Tell me the measured self-cleavage of A34C G47C , please.
0.177

Which self-cleavage value is on record for G7C G16A ?
0.0653

Can you look up the measured self-cleavage of A23G G36A for me?
0.126

Data request, read-out self-cleavage, for G17C G43A
0.0872

GET /values?readout=self-cleavage&item= C25G U31C
0.404

GET /values?readout=self-cleavage&item= C26U G36A
0.0777

Reported self-cleavage for G7C G43A : what is it?
0.0617

Value lookup for self-cleavage; key = G39U G48U
0.196

If you can, please state the reported self-cleavage value of U6A C21U .
0.0948

Item A4G C46A has what recorded self-cleavage?
0.785

What value of self-cleavage has been reported for the following variant? C26A U31A
0.638

Recorded self-cleavage of C15G G42C , please.
0.0975

Given A4G G28U , state its recorded self-cleavage.
0.644

Bench note: what self-cleavage did C20A U31G show?
0.177

Give the measured self-cleavage of A11U G29C .
1.02

Form field: reported self-cleavage of G16A G36U
0.174

Requested field: self-cleavage. Item: C26G G47U
0.116

Look up self-cleavage for this variant: C20U A34C
0.0697

Any idea what self-cleavage was measured for A11G U18A ?
0.61

Which measured self-cleavage value corresponds to C14U G36A ?
0.789

May I ask what self-cleavage has been recorded for C3U C5U ?
0.315

What value of measured self-cleavage is listed for A4G U31A ?
0.604

Need self-cleavage of A32G A34C , thanks.
0.137

Given the entry C21G A32C , report its measured self-cleavage.
0.0636

What does the record list as self-cleavage for U6C C9A ?
0.0857

self-cleavage for A2G C8U ?
0.194

Give its self-cleavage value. Item: U12G A22U
0.706

Entry under review: C25A C27G . Reported self-cleavage?
0.104

Recorded self-cleavage of C9G A30G , please.
0.791

Which self-cleavage is listed for C27G G28A ?
0.0984

self-cleavage lookup needed for C27A C46G , thanks.
0.466
